The entries below are paired with their reported pest or weed control at 50 µg/cm2.
- Test system: Cabbage Looper (Trichoplusia ni) ("CL"), second instar larvae
- experimental-protocol: Bioassay on cabbage looper (CL), 128-well diet tray assay
- Assay type: in vivo
- measurement-setup: Trichoplusia ni, read-out: CL (Biological Results, rating)

compound: COc1ccc(-n2cnc(-c3ccc(NC(=O)/N=C4\SCC(=O)N4c4cc(C)ccc4C(C)C)c(F)c3)n2)cc1
pest or weed control at 50 µg/cm2: 50 to 100%
//
compound: COC(C)c1ccc(C)cc1N1C(=O)CS/C1=N\C(=O)Nc1c(F)cc(-c2ncn(-c3ccc(OC(F)(F)F)cc3)n2)cc1F (stereo not shown)
pest or weed control at 50 µg/cm2: 50 to 100%
//
compound: COc1ccc(C(C)C)c(N2C(=O)CS/C2=N\C(=O)Nc2ccc(-c3ncn(-c4cccc(C(F)(F)F)c4)n3)cc2F)c1
pest or weed control at 50 µg/cm2: 50 to 100%
//
compound: COC(c1ccc(C)cc1N1C(=O)CS/C1=N\C(=O)Nc1ccc(-c2ncn(-c3ccc(OC(F)(F)F)cc3)n2)cc1F)C(F)(F)F (stereo not shown)
pest or weed control at 50 µg/cm2: 50 to 100%
//
compound: Cc1cc(-c2ncn(-c3ccc(OC(F)(F)F)cc3)n2)ccc1NC(=O)/N=C1\SCC(=O)N1c1ccc(N(C)C)cc1C(C)C
pest or weed control at 50 µg/cm2: 50 to 100%
//
compound: COc1ccc(C(C)C)c(N2C(=O)CS/C2=N\C(=O)Nc2ccc(-c3ncn(-c4ccc(OC(F)(F)C(F)(F)F)cc4)n3)cc2OC)c1
pest or weed control at 50 µg/cm2: 50 to 100%
//
compound: COC(C)c1ccc(C)cc1N1C(=O)CS/C1=N\C(=O)Nc1ccc(-c2ncn(-c3ccc(SC(F)(F)F)cc3)n2)cc1F (stereo not shown)
pest or weed control at 50 µg/cm2: 50 to 100%
//
compound: CC(=O)N(C)c1ccc(C(C)C)c(N2C(=O)CS/C2=N\C(=O)Nc2ccc(-c3ncn(-c4ccc(OC(F)(F)F)cc4)n3)cc2F)c1
pest or weed control at 50 µg/cm2: 50 to 100%
//
compound: COc1cc(-c2ncn(-c3ccc(OC(F)(F)F)cc3)n2)ccc1NC(=O)/N=C1\SCC(=O)N1c1cc(N(C)C)ccc1C(C)C
pest or weed control at 50 µg/cm2: 50 to 100%
//
compound: CCCc1ccc(N(C)C)cc1N1C(=O)CS/C1=N\C(=O)Nc1ccc(-c2ncn(-c3ccc(OC(F)(F)F)cn3)n2)cc1C(F)(F)F
pest or weed control at 50 µg/cm2: 50 to 100%
//
compound: Cc1ccc(OCCCC(F)(F)F)c(N2C(=O)CS/C2=N\C(=O)Nc2c(F)cc(-c3ncn(-c4ccc(OC(F)(F)F)cc4)n3)cc2F)c1
pest or weed control at 50 µg/cm2: 50 to 100%
//
compound: COc1ccc(C(C)C)c(N2C(=O)CS/C2=N\C(=O)Nc2ccc(-c3ncn(-c4ccc(OC(F)(F)F)cn4)n3)cc2C#N)c1
pest or weed control at 50 µg/cm2: 50 to 100%
//
compound: Cc1ccc(OCCC(F)(F)F)c(N2C(=O)CS/C2=N\C(=O)Nc2ccc(-c3ncn(-c4ccc(OC(F)(F)F)cn4)n3)cc2C(F)(F)F)c1
pest or weed control at 50 µg/cm2: 50 to 100%
